B1: IKZF1 (parent)
chain: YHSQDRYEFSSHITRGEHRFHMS

variants of: B1; assay: protein stability index of a GFP-peptide fusion (GPS, HEK-293T) (PSI 1-6); higher = more stable; settings: c terminus: native;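 note: lentivirally expressed fusions sorted by FACS into six bins by GFP to DsRed ratio, PSI derived from sequencing read proportions per bin multiplied by bin number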

{"input.sequence": "YHSQDRYEFSGHITRGEHRFHMS [S11G]", "protein stability index": 2}
{"input.sequence": "YHSRDRYEFSSHITRGEHRFHMS [Q4R]", "protein stability index": 1.94}
{"input.sequence": "YHSQDRYEFSSHITRGEHNFHMS [R19N]", "protein stability index": 2.27}
{"input.sequence": "YHSQDRYLFSSHITRGEHRFHMS [E8L]", "protein stability index": 4.01}
{"input.sequence": "YHSQDRYEFISHITRGEHRFHMS [S10I]", "protein stability index": 1.92}
{"input.sequence": "YHSQDRYEFSWHITRGEHRFHMS [S11W]", "protein stability index": 2.27}
{"input.sequence": "YHSQDRYEFSNHITRGEHRFHMS [S11N]", "protein stability index": 1.92}
{"input.sequence": "YHSQDRYEGSSHITRGEHRFHMS [F9G]", "protein stability index": 1.97}
{"input.sequence": "YHSQDRYEFSSHITRGEHRHHMS [F20H]", "protein stability index": 1.93}
{"input.sequence": "YHSQDRYEFTSHITRGEHRFHMS [S10T]", "protein stability index": 1.62}
{"input.sequence": "YHSQDRYEFRSHITRGEHRFHMS [S10R]", "protein stability index": 1.9}
{"input.sequence": "YHSQDRYEFSSHIIRGEHRFHMS [T14I]", "protein stability index": 2.15}
{"input.sequence": "YHSQDRYEDSSHITRGEHRFHMS [F9D]", "protein stability index": 1.98}
{"input.sequence": "YHSQDRYEFSSHITRGKHRFHMS [E17K]", "protein stability index": 2.41}
{"input.sequence": "VHSQDRYEFSSHITRGEHRFHMS [Y1V]", "protein stability index": 3.57}
{"input.sequence": "YHSQDRYEFSSHITRGECRFHMS [H18C]", "protein stability index": 2.04}
{"input.sequence": "KHSQDRYEFSSHITRGEHRFHMS [Y1K]", "protein stability index": 2.12}
{"input.sequence": "YHSQDRYEFSYHITRGEHRFHMS [S11Y]", "protein stability index": 1.67}
{"input.sequence": "YHSCDRYEFSSHITRGEHRFHMS [Q4C]", "protein stability index": 1.44}
{"input.sequence": "YHSQDRYEFLSHITRGEHRFHMS [S10L]", "protein stability index": 1.66}
{"input.sequence": "YHSPDRYEFSSHITRGEHRFHMS [Q4P]", "protein stability index": 1.94}
{"input.sequence": "YHSQDRYEFSSHITRGEHREHMS [F20E]", "protein stability index": 1.42}
{"input.sequence": "YHSQDRSEFSSHITRGEHRFHMS [Y7S]", "protein stability index": 2.2}
{"input.sequence": "YHSQDRDEFSSHITRGEHRFHMS [Y7D]", "protein stability index": 2.26}
{"input.sequence": "YHSQDRYEFSSIITRGEHRFHMS [H12I]", "protein stability index": 1.92}
{"input.sequence": "YHSQDRYEFSSHITRGSHRFHMS [E17S]", "protein stability index": 1.64}
{"input.sequence": "YHSQDRYEFSSHITREEHRFHMS [G16E]", "protein stability index": 3.6}
{"input.sequence": "YHSQDRYEFSSHITRGEHRFHME [S23E]", "protein stability index": 1.5}
{"input.sequence": "YHSQDRYKFSSHITRGEHRFHMS [E8K]", "protein stability index": 3.34}
{"input.sequence": "YHSQDRYEFSSHITRGEHMFHMS [R19M]", "protein stability index": 1.92}
{"input.sequence": "YHSQDVYEFSSHITRGEHRFHMS [R6V]", "protein stability index": 2.07}
{"input.sequence": "YHSQDRQEFSSHITRGEHRFHMS [Y7Q]", "protein stability index": 2.04}
{"input.sequence": "YHSQDRYEFSSHITCGEHRFHMS [R15C]", "protein stability index": 2.69}
{"input.sequence": "RHSQDRYEFSSHITRGEHRFHMS [Y1R]", "protein stability index": 4.05}
{"input.sequence": "YHSQDRYEFSSKITRGEHRFHMS [H12K]", "protein stability index": 2.31}
{"input.sequence": "YQSQDRYEFSSHITRGEHRFHMS [H2Q]", "protein stability index": 2.4}
{"input.sequence": "YHSQDRYEFGSHITRGEHRFHMS [S10G]", "protein stability index": 1.92}
{"input.sequence": "YHSQDRYEFSSHITRGEHRFSMS [H21S]", "protein stability index": 1.89}
{"input.sequence": "YHSQDRYEFSFHITRGEHRFHMS [S11F]", "protein stability index": 2.9}
{"input.sequence": "YHSQDRYEFSSHITRGEHKFHMS [R19K]", "protein stability index": 1.95}
{"input.sequence": "YHSQDRYEFSSRITRGEHRFHMS [H12R]", "protein stability index": 2.79}
{"input.sequence": "YHSQDRYEFSSHITRGEHRFVMS [H21V]", "protein stability index": 2.25}
{"input.sequence": "YHVQDRYEFSSHITRGEHRFHMS [S3V]", "protein stability index": 2.15}
{"input.sequence": "YHSQFRYEFSSHITRGEHRFHMS [D5F]", "protein stability index": 2.55}
{"input.sequence": "YHSQDRYEFHSHITRGEHRFHMS [S10H]", "protein stability index": 1.84}
{"input.sequence": "YHSQDRYEFSSHITRGWHRFHMS [E17W]", "protein stability index": 2.07}
